Biological target: T1, FZD5 cysteine-rich domain (CRD), MYC-tagged and GPI-anchored on CHO cells (human, UniProt Q13467 29-156, GPI anchor)
T1 construct: also called FZD5 CRD; CHO-myc-FZDGPI; not shown: MYC tag and GPI anchor signal
T1 sequence: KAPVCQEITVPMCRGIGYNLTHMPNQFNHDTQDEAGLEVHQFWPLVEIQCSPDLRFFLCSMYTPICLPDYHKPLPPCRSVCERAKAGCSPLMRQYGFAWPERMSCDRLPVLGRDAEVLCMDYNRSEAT
Test: flow cytometry, CHO-CRD cells;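 also: flow cytometry of Fab binding to CHO cells overexpressing a Frizzled CRD, with binding defined as median fluorescence over twice that of CHO cells lacking any Frizzled CRD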
readout_type: median fluorescence
Numbers only.

>  <binder>
Fab-2935 (Fab, V domains shown, Fab; also called Fv-2935) VH: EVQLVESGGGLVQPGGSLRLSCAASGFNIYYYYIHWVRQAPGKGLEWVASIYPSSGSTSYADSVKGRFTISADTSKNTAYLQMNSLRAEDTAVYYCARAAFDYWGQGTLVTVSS VL: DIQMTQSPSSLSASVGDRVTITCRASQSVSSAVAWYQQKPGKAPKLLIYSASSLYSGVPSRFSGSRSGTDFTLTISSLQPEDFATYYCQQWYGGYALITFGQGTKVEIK

>  <median fluorescence>
29.2

$$$$

API: the following record is the query input.
Req: So what does the record say about median fluorescence for Fab-2903 (Fab, V domains shown, Fab; also called Fv-2903) VH: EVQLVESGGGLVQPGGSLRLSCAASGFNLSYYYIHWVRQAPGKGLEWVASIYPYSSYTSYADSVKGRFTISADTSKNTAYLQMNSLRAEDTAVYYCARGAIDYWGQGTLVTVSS V domain: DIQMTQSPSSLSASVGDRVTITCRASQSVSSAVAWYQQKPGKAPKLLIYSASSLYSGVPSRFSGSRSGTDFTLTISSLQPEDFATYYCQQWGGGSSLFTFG ?
Resp: 34.9
